Molecular target: Spike protein of SARS-CoV-2 strain XBB.1.16 (hCoV-19/France/GES-IPP7712/2023) (SARS-CoV-2)
Test: cell-based or functional assay
Listed here: items and their measured IC50, S-Fuse neutralization of live virus.
Assay endpoint: IC50, S-Fuse neutralization of live virus

Binder | Value reported
SPK002 antibody (parental version Cv2.3194 described in WO 2022/228827) (antibody, V domains shown) VH: EVQLVESGGGLIQPGGSLRLSCAASGITVTSNYMSWVRQAPGKGLEWVSVIYPGGSTFYADSVKGRFTISRDNSKNTLYLQMNSLRAEDTAVYYCARDLVVYGMDVWGQGTTVTVS VL: EIVLTQSPGTLSLSPGERATLSCRASQSVSSSYLAWYQQKPGQAPRLLIYGASSRATGIPGRFSGSGSGTDFTLTISRLEPEDFAIYYCQQGVTFGGGTKVEIK | 156 µg/mL
SPK002M C2 antibody (antibody, human IgG1, kappa, V domains shown) VH: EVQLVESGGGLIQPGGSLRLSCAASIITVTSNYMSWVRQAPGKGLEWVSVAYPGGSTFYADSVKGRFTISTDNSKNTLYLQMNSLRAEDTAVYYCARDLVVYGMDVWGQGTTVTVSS VL: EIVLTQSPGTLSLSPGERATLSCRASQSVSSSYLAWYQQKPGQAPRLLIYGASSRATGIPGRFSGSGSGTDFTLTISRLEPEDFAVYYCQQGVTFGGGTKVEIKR | 0.21 µg/mL
SPK002M A6 antibody (antibody, human IgG1, kappa, V domains shown) VH: EVQLVESGGGLIQPGGSLRLSCAASGITVTSNYMSWVRQAPGKGLEWVSVIYPGGSTFYADSVKGRFTISADNSKNTLYLQMNSLRAEDTAVYYCARDLVVYGMDVWGQGTTVTVSS VL: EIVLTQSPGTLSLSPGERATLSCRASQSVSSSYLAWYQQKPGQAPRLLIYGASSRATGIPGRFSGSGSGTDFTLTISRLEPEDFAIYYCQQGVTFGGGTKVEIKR | 1.34 µg/mL
SPK002M A5 antibody (antibody, human IgG1, kappa, V domains shown) VH: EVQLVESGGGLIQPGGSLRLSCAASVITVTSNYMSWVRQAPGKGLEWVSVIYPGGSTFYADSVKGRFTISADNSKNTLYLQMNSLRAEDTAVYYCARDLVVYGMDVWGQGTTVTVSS VL: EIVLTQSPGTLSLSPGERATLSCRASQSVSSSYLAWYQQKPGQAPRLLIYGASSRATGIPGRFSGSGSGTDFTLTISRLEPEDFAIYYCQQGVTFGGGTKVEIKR | 0.36 µg/mL
